Assay: MTT cell viability, DH82 macrophages
Format: cell-based, canine
Settings: dog
metric-name: viability at 24 h, 200 µM (%)
The figure you give is taken to be in %; do not add the unit.

The molecule listed as COCCC(=O)NCc1ccccc1 [Compound 4, 3-methoxy-N-benzylpropanamide] shows viability at 24 h, 200 µM equal to 97.6

The molecule listed as O=C(CCO)NCc1ccccc1 [Compound 5, 3-hydroxy-N-benzylpropanamide] shows viability at 24 h, 200 µM equal to 97.2

The molecule listed as O=C(CCNNC(=O)c1ccncc1)NCc1ccccc1 [Compound 1, nialamide, reference compound] shows viability at 24 h, 200 µM equal to 99.9

The molecule listed as NC(=O)c1ccncc1 [Compound 7, isonicotinamide] shows viability at 24 h, 200 µM equal to 98.4

The molecule listed as NCCC(=O)NCc1ccccc1 [Compound 3, 3-amino-N-benzylpropanamide] shows viability at 24 h, 200 µM equal to 99.7

###

Please respond with reported viability at 24 h, 200 µM for every item in the list.
Assay: MTT cell viability, RAW 264.7 macrophages
Type: cell-based, murine
Details: mouse

The compound listed as NC(=O)c1ccncc1 [Compound 7, isonicotinamide] shows viability at 24 h, 200 µM equal to 101%

The compound listed as NCCC(=O)NCc1ccccc1 [Compound 3, 3-amino-N-benzylpropanamide] shows viability at 24 h, 200 µM equal to 102%

The compound listed as O=C(CCNNC(=O)c1ccncc1)NCc1ccccc1 [Compound 1, nialamide, reference compound] shows viability at 24 h, 200 µM equal to 102%

The compound listed as O=C(CCO)NCc1ccccc1 [Compound 5, 3-hydroxy-N-benzylpropanamide] shows viability at 24 h, 200 µM equal to 99.9%

The compound listed as COCCC(=O)NCc1ccccc1 [Compound 4, 3-methoxy-N-benzylpropanamide] shows viability at 24 h, 200 µM equal to 102%
